Known TGI of a selection of molecules
- Tested on: NCI-H460 lung
- procedureDetails: NCI tumour cell line growth inhibition, 48 h

Qu. Provide measured TGI value, entry: COc1cccc(NC(=O)/C(CC(=O)CC(c2ccccc2)c2c(O)c3ccccc3oc2=O)=N\NC(C)(C)C)c1OC (stereo not drawn)
Ans. > 100 µM

Qu. Quote TGI reported for O=C1NC(=O)C2C(=O)NC(=O)C1C2(c1ccccc1)c1cc[nH]c1 (stereo not drawn) please.
Ans. > 100 µM

Continuing:
Qu. Hello, please tell me recorded TGI for this one: `COC(=O)N1CCc2c(nc(N(C)CCO)[nH]c2=O)C1`
Ans. > 100 µM

###

- Tested on: MDA-MB-435
In this section we review reported GI50 values for a set of molecules.

Example cases with answers are listed next.
Qu. Check MDA-MB-435 data and give GI50 for `CCn1c(CN2CCN(Cc3ccccc3)CC2)nc2cc(NC(=O)c3cccs3)ccc21` .
Ans. 14.8 µM

Qu. Lab note: record GI50 of COC(=O)C1=C(C(=O)ON)C2C=CC1(C(Cc1ccccc1)Nc1ccccc1)O2 (stereo unspecified) tested on MDA-MB-435.
Ans. 1.92 µM

Qu. Tell me GI50 of `C/C(=N\Nc1cc(C)c2cc(C)ccc2n1)c1ccccn1` when tested on MDA-MB-435.
Ans. 0.145 µM

Qu. Give GI50 only, for CC1=C2C[C@H]3[C@@H](CC[C@@H]4CC(NS(C)(=O)=O)CC[C@@]43C)[C@@H]2CC[C@@]2(C1)O[C@@H]1C[C@H](C)CN[C@H]1[C@H]2C (stereo partly specified) , using MDA-MB-435 data.
Ans. 8.1 µM

Qu. Write GI50 of `COc1ccc(-n2nnnc2-c2c[nH]c3c(F)cc(F)cc23)cc1` ; system used: MDA-MB-435
Ans. > 100 µM

Let us move to another entry and its GI50.
Qu. Enter recorded GI50 with MDA-MB-435 for `Cc1ccccc1N=Nc1ccc(NC(=O)c2ccnn2C)c(C)c1` here.
Ans. 54.9 µM

###

- Test system: HOP-62 NSCLC
- procedureDetails: NCI tumour cell line growth inhibition, 48 h
assayEndpoint: TGI

Below, each entry is followed by its recorded TGI result.
Qu. Answer with the recorded TGI for the molecule listed here: `N#CCCCC[N+]12CN3CN(CN(C3)C1)C2`
Ans. > 100 µM

Qu. Given the molecule COC1CC2CCC(C)C(O)(O2)C(=O)C(=O)N2CCCCC2C(=O)OC(C(C)CC2CCC(O)C(OC)C2)CC(=O)C(C)C=C(C)C(O)C(OC)C(=O)C(C)CC(C)/C=C/C=C/C=C1C (stereo not given) , write its reported TGI.
Ans. 9.96 µM

Qu. # return recorded TGI for input `COc1ccc2nc3ccc(OC)cc3c(SCc3ccc([N+](=O)[O-])cc3)c2c1`
Ans. > 100 µM

Qu. Given `Ic1ccccc1-c1ccccc1` , respond with its TGI.
Ans. > 100 µM

Now for another entry.
Qu. Identify measured TGI corresponding to `COc1cc(OC)c2c(=O)cc(-c3ccccc3F)[nH]c2c1`
Ans. > 100 µM

###

- Test system: OVCAR-8 ovarian
- procedureDetails: NCI tumour cell line growth inhibition, 48 h; in the data active = GI50 below about 0.43 µM; inactive = the rest
Write down one outcome, taken from active, inactive

Solved cases below.
Qu. # outcome recorded in this test, key = `CC(=O)[CH-]C(=O)c1ccccc1.CC(=O)[CH-]C(=O)c1ccccc1.[Eu+3].[OH-].[OH3+]`
Ans. inactive

Qu. In this assay, the call recorded for `CC[C@H](Nc1nc(NCc2cnc(C)cc2C)c2ncn(C(C)C)c2n1)[C@@H](C)O` was what?
Ans. active

Qu. Fill in: this test's call for O=C1CCCCCCCC/C=C\CC(c2ccco2)O1 (centres undefined) is ___
Ans. inactive

Further cases:
Qu. Could you please tell me the result logged for `Cc1ccc(/C=C2/SC(Nc3nc(-c4csc(NC5=NC(=O)/C(=C\c6ccc(C)cc6)S5)n4)cs3)=NC2=O)cc1` in this assay?
Ans. inactive
